- ASSAY SYSTEM: human IDO1 (Homo sapiens)
- TEST DETAILS: Assessment of human IDO-1 inhibitory activity in Hela cells (Interferon-gamma stimulated HeLa cells, Ehrlich reagent, absorbance 490 nm)
- Type: cell-based
- Set-up: endogenous in cells; host or cells: HeLa cells stimulated with interferon-gamma
- ASSAY SETUP: Hela Human IDO-1 cellular assay
ASSAY ENDPOINT: IC50

[[record]]
compound = "COCC(CC(=O)O)c1ccc(N(CC(F)F)C2CCOCC2)c(Nc2ccc(C#N)cc2)c1 (single isomer, unassigned)"
assay_endpoint = "IC50"
value_observed = "< 5 nM"

[[record]]
compound = "CCOc1ncc(Nc2cc([C@H](COC)CC(=O)O)ccc2N2CCOCC2CC)cn1 (single isomer, unassigned)"
assay_endpoint = "IC50"
value_observed = "> 50 nM"

[[record]]
compound = "CC[C@H](CC(=O)O)c1ccc(N(CC)C2CCOCC2)c(Nc2cnc(OC)cn2)c1 (single isomer, unassigned)"
assay_endpoint = "IC50"
value_observed = "< 5 nM"

[[record]]
compound = "CCOc1ncc(Nc2cc(C(COC)CC(=O)O)ccc2N(C)C2CCOCC2)cn1 (single isomer, unassigned)"
assay_endpoint = "IC50"
value_observed = "> 50 nM"

[[record]]
compound = "CC[C@@H](CC(=O)O)c1ccc(N(CC2CC2)CC(C)(C)O)c(Nc2ccc(C#N)cc2)c1 (single isomer, unassigned)"
assay_endpoint = "IC50"
value_observed = "< 5 nM"


Shift focus to the following entry.
Incoming: Return reported IC50; argument: CCN(c1ccc(C2(CC(=O)O)CCOCC2)cc1NC(=O)Nc1ccc(C)cc1)C1CCOCC1
Outgoing: > 50 nM

---

- ASSAY SYSTEM: human IDO1 (Homo sapiens, UniProt P14902)
- Sequence (P14902 whole entry): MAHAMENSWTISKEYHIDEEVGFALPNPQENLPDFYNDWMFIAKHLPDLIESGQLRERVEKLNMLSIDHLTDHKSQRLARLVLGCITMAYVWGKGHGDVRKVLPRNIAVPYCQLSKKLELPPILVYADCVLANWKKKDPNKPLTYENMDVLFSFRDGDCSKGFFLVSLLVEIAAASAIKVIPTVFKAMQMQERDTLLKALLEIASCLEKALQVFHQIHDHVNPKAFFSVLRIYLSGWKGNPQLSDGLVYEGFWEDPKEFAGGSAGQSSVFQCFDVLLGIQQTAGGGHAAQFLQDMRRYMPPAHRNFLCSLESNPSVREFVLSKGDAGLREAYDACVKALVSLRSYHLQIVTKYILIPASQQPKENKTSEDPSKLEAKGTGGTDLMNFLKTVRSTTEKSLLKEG
- TEST DETAILS: Assessment of human IDO-1 inhibitory activity in Hela cells (Interferon-gamma stimulated HeLa cells, Ehrlich reagent, absorbance 490 nm)
- Format: cell-based
- Parameters: endogenous in cells; host or cells: HeLa cells stimulated with interferon-gamma
- ASSAY SETUP: Hela Human IDO-1 cellular assay
ASSAY ENDPOINT: IC50

Known IC50 results, listed for orientation:
[[record]]
compound = "CCC(CC(=O)O)c1cc(F)c(N(CC)C2CCOCC2)c(Nc2ccc(Cl)cc2)c1 (single isomer, unassigned)"
assay_endpoint = "IC50"
value_observed = "< 5 nM"

[[record]]
compound = "CCC1COCCN1c1ccc([C@@H](COC)CC(=O)O)cc1Nc1ccc(Cl)cc1 (single isomer, unassigned) [Example 1300]"
assay_endpoint = "IC50"
value_observed = "< 50 nM"

[[record]]
compound = "CCc1ccc(Nc2cc(C(COC)CC(=O)O)cc(F)c2N(CC(C)C)CC(C)C)cc1 (single isomer, unassigned)"
assay_endpoint = "IC50"
value_observed = "< 50 nM"


Incoming: What value of IC50 on human IDO1 (Homo sapiens, UniProt P14902) does COCC(CC(=O)O)c1ccc(N(C)C2CCOCC2)c(Nc2ccc(Cl)cc2)c1 (single isomer, unassigned) [Example 884] have?
Outgoing: < 5 nM

Incoming: What value of IC50 on human IDO1 (Homo sapiens, UniProt P14902) does CCN(c1ccc([C@@H](COC)CC(=O)O)cc1Nc1ccc(C#N)c(OCC(F)(F)F)c1)C1CCOCC1 (single isomer, unassigned) have?
Outgoing: < 50 nM

Incoming: What value of IC50 on human IDO1 (Homo sapiens, UniProt P14902) does CCC(CC(=O)O)c1ccc(N(CC)C2CCCOC2)c(Nc2ccc(C#N)cc2)c1 (single isomer, unassigned) have?
Outgoing: < 5 nM
